Parameter IC50: see the listing below.
- assaySystem: Beta-galactosidase (Escherichia coli)
- Sequence (Q8VNN2 whole entry): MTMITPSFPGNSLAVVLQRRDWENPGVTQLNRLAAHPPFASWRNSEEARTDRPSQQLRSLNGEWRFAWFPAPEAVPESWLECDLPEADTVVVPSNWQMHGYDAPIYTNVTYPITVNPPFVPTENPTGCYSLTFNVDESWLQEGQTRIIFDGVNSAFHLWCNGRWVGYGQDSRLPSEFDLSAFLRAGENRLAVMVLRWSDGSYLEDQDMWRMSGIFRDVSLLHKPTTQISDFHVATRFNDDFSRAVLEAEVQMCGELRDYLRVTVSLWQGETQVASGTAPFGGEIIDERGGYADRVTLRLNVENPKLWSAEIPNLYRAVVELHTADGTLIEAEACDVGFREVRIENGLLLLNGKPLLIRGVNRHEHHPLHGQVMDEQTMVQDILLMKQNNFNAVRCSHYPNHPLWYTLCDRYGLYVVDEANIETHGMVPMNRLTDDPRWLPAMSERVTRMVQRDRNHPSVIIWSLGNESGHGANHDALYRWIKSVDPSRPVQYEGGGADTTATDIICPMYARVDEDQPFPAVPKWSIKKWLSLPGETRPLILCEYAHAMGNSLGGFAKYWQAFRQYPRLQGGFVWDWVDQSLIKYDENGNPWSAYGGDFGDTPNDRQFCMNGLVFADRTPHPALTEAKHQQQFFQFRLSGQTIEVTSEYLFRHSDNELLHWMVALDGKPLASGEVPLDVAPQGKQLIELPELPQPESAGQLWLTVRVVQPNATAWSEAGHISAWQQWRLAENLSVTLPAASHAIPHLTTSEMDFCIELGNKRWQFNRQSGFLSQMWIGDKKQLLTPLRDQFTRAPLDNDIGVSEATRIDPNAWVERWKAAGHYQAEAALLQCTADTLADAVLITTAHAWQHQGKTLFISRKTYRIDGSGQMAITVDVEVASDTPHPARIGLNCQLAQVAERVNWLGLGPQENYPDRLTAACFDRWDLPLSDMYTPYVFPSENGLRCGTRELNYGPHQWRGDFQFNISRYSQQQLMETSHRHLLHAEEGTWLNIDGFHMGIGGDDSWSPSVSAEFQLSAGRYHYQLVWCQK
- experimentalDetails: Dose response counterscreen for EBI2 assay utilizing the enzyme, b-galactosidase.
- Assay type: functional
Active and inactive are the calls of the source.
propertyLabel: IC50

[[record]]
molecularstring = "CCOC(=O)c1cnc(SCC(=O)Nc2cc(C(F)(F)F)ccc2N2CCOCC2)nc1N"
endpointresult = "> 80 µM (inactive)"

[[record]]
molecularstring = "COc1ccc(/C=C/C(=O)N2CCN(c3ccccn3)CC2)cc1"
endpointresult = "> 80 µM (inactive)"

[[record]]
molecularstring = "COc1ccc(OCC(=O)N2CCN(c3nnc(-c4ccccc4)c4ccccc34)CC2)cc1"
endpointresult = "> 80 µM (inactive)"

[[record]]
molecularstring = "C/C(=N\\NC(=O)c1cc2ccccc2cc1O)c1ccccn1"
endpointresult = "136 µM (inactive)"


###

# UniProtKB P03372: IC50 values follow
# Sequence (P03372 whole entry): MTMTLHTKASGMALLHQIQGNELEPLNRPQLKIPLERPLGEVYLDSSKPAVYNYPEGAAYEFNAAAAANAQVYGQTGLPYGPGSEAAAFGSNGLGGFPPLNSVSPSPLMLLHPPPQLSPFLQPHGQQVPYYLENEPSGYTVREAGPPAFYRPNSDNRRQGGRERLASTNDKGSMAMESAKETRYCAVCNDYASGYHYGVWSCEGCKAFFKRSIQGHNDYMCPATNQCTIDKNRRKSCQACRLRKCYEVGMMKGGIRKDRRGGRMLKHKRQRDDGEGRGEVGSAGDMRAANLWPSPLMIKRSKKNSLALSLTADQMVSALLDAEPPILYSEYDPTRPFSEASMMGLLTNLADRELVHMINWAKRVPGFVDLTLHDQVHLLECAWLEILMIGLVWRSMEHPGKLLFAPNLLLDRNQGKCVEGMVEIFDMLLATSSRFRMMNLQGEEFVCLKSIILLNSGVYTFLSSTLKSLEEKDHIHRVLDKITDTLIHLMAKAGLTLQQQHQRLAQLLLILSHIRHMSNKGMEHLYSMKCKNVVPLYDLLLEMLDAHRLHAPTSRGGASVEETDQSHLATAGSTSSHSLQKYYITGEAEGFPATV
Active and inactive are the calls of the source.
propertyLabel: IC50

[[record]]
compound = "CC1Cc2ccccc2N1C(=O)CSc1nnc(NC(=O)Cc2cccs2)s1 (centres undefined)"
endpointresult = "34 µM (not active)"

[[record]]
compound = "Cn1c(Cc2ccccc2)nnc1SCC(=O)c1cccs1"
endpointresult = "> 50 µM (not active)"

[[record]]
compound = "CCN(c1ccccc1)S(=O)(=O)c1cc(C(=O)O)ccc1C"
endpointresult = "13.1 µM (active)"

[[record]]
compound = "CCN(c1ccccc1)S(=O)(=O)c1ccc2ncc(C(=O)NCCOC)c(O)c2c1"
endpointresult = "27.9 µM (active)"


###

Parameter EC50: see the listing below.
- assaySystem: UniProt Q9QUQ5
- Sequence (Q9QUQ5 whole entry): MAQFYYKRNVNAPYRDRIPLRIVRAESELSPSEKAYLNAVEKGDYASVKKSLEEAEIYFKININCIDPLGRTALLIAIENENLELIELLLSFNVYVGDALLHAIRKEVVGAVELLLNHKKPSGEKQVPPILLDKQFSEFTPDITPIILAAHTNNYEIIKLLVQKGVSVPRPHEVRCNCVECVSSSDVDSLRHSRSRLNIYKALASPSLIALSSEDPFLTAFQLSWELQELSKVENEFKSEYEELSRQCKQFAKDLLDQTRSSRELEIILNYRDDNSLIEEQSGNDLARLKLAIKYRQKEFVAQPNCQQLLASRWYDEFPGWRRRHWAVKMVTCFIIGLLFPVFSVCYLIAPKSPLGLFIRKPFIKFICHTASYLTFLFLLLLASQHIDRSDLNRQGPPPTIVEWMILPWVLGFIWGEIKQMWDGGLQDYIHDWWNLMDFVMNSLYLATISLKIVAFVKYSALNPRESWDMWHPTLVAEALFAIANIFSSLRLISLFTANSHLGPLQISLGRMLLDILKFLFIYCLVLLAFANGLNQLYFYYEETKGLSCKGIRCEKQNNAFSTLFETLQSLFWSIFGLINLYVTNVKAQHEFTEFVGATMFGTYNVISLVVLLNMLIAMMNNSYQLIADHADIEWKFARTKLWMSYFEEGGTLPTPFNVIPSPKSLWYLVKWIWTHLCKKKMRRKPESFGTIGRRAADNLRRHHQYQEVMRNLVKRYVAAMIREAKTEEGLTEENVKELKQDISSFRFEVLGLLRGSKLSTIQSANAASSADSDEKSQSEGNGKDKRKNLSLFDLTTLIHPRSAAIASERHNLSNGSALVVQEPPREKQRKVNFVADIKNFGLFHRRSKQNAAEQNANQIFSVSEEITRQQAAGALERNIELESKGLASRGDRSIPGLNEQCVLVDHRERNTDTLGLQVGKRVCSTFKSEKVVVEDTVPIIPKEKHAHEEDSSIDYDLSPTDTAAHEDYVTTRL
- experimentalDetails: mouse TRPC4 channel inhibitors, dose response, cell-based, HEK293 TRPC4/mu-opioid, Fluo-4 calcium (AID 434942);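 note: potency of inhibitors blocking the TRPC4 calcium response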
- Type: functional
Calls of active or inactive are those of the source.
propertyLabel: EC50

[[record]]
molecule = "Cc1nn(-c2cccc(Cl)c2)c2nc(C(F)(F)F)[nH]c(=O)c12"
propertylabel = "EC50"
endpointresult = "3.35 µM (active)"

[[record]]
molecule = "Cc1cccc(C)c1-n1cccc1/C=C1\\SC(=S)N(c2cccc(C(=O)O)c2)C1=O"
propertylabel = "EC50"
endpointresult = "3.35 µM (active)"

[[record]]
molecule = "Cc1ccccc1C(=O)NC1CC2CCC(C1)N2Cc1ccccc1 (configuration not stated)"
propertylabel = "EC50"
endpointresult = "0.188 µM (active)"

[[record]]
molecule = "COc1cc(/C=C2\\SC(=S)N(NS(=O)(=O)c3ccc(C)cc3)C2=O)cc(OC)c1OC"
propertylabel = "EC50"
endpointresult = "6.68 µM (active)"

[[record]]
molecule = "Cc1ccc(-c2csc(NC(=O)C3CC=CCC3C(=O)O)c2C(=O)OC(C)C)cc1 (configuration not stated)"
propertylabel = "EC50"
endpointresult = "5.96 µM (active)"

[[record]]
molecule = "CCOC(=O)c1c(NC(=O)C2CC(Cl)=CCC2C(=O)O)sc2c1CCCCC2 (configuration not stated)"
propertylabel = "EC50"
endpointresult = "6.68 µM (active)"

[[record]]
molecule = "CCOc1ccc(NC(=O)c2cnn3c(O)cc(C4CCN(C(=O)OC(C)(C)C)CC4)nc23)cc1"
propertylabel = "EC50"
endpointresult = "4.22 µM (active)"


###

- experimentalDetails: Luminescence Cell-Based Dose Response HTS to Identify Activators of Luciferase Translation or Activity in H4 […] Cells. [Related pubchem assays: 1829 (Project Summary), 1814 (Primary HTS)]
- Format: functional
Active and inactive are the calls of the source.
Parameter EC50: see the listing below.
propertyLabel: EC50

[[record]]
molecularstring = "c1ccc(-c2ccc3c(c2)NCCN3)cc1"
endpointresult = "25 µM (active)"

[[record]]
molecularstring = "O=C1C[C@H]2[C@H](CO)[C@@H](OC(=O)c3ccc(-c4ccccc4)cc3)C[C@H]2O1"
endpointresult = "16.9 µM (active)"

[[record]]
molecularstring = "CCOC(=O)c1cnn(-c2ncnc3sc4c(c23)CCC4)c1N"
endpointresult = "29.1 µM (active)"

[[record]]
molecularstring = "c1ccc(NCc2nc(-c3ccccc3)no2)cc1"
endpointresult = "21.4 µM (active)"

[[record]]
molecularstring = "CC(C)c1nnc(NC(=O)COc2ccccc2[N+](=O)[O-])s1"
endpointresult = "67 µM (active)"

[[record]]
molecularstring = "Cc1nc(NCc2ccco2)c2c(C)c(C)sc2n1"
endpointresult = "8.42 µM (active)"

[[record]]
molecularstring = "COc1ccc2nc(NNC(=O)c3cc(=O)c4ccccc4o3)sc2c1"
endpointresult = "24.4 µM (active)"


###

- assaySystem: Sentrin-specific protease 6 (Homo sapiens, UniProt Q9GZR1);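 note: Luminescence-based dose-response confirmatory assay of SENP6 inhibition, following up an ultra-high-throughput screen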
- Sequence (Q9GZR1 whole entry): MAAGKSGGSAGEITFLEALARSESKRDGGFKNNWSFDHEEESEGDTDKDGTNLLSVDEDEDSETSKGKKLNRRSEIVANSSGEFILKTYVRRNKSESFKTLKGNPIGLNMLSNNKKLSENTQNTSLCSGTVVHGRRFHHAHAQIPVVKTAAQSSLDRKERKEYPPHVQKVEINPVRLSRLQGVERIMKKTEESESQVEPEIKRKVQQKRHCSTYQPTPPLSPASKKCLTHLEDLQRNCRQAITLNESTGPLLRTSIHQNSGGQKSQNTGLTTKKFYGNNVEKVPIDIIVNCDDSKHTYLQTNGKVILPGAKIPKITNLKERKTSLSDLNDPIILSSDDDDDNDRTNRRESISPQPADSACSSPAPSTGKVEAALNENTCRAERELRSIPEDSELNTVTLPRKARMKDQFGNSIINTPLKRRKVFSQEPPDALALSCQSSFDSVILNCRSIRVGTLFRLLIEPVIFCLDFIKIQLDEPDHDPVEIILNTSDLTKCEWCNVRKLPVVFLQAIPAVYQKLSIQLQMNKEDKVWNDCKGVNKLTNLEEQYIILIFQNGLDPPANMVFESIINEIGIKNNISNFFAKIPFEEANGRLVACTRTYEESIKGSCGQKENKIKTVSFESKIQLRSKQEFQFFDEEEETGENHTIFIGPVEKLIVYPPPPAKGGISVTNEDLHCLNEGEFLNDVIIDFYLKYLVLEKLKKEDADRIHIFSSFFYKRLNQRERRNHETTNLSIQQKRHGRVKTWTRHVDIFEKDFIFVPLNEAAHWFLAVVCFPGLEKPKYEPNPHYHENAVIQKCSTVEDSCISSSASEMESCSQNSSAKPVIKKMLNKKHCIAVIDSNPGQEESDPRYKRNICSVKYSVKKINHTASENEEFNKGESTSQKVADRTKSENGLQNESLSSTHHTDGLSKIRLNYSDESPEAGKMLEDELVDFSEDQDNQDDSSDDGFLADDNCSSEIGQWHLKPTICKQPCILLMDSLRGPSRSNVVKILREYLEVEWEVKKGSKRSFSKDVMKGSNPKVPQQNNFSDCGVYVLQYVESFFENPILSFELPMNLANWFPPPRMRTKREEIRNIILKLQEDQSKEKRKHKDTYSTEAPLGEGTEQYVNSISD
- Type: functional
Active and inactive are the calls of the source.
Parameter IC50: see the listing below.
propertyLabel: IC50

[[record]]
molecularstring = "COc1ccc(/C=N/Nc2cc(N3CCCC3)nc(N3CCCC3)n2)cc1"
endpointresult = "2.71 µM (active)"

[[record]]
molecularstring = "C/C(=N\\OC(=O)c1ccc(Br)cc1)c1ccccn1"
endpointresult = "1.31 µM (active)"

[[record]]
molecularstring = "N#Cc1ccsc1NC(=O)CSc1nnnn1-c1ccc(O)cc1"
endpointresult = "30.5 µM (active)"

[[record]]
molecularstring = "COc1cccc(C(=O)Oc2ccc(/C=N/Nc3ccc(C(=O)O)cc3)cc2OC)c1"
endpointresult = "14.3 µM (active)"

[[record]]
molecularstring = "C/C(=N\\Nc1ccc([N+](=O)[O-])cc1)c1ccco1"
endpointresult = "10.6 µM (active)"

[[record]]
molecularstring = "Cc1cccc(-n2ncc3c(N4CCC(C)CC4)ncnc32)c1"
endpointresult = "21.9 µM (active)"

[[record]]
molecularstring = "Oc1ccc(/C=N/Nc2cc(N3CCCC3)nc(N3CCCC3)n2)cc1"
endpointresult = "6.05 µM (active)"


###

- assaySystem: Lysine-specific demethylase 4C (Homo sapiens, UniProt Q9H3R0)
- Sequence (Q9H3R0 whole entry): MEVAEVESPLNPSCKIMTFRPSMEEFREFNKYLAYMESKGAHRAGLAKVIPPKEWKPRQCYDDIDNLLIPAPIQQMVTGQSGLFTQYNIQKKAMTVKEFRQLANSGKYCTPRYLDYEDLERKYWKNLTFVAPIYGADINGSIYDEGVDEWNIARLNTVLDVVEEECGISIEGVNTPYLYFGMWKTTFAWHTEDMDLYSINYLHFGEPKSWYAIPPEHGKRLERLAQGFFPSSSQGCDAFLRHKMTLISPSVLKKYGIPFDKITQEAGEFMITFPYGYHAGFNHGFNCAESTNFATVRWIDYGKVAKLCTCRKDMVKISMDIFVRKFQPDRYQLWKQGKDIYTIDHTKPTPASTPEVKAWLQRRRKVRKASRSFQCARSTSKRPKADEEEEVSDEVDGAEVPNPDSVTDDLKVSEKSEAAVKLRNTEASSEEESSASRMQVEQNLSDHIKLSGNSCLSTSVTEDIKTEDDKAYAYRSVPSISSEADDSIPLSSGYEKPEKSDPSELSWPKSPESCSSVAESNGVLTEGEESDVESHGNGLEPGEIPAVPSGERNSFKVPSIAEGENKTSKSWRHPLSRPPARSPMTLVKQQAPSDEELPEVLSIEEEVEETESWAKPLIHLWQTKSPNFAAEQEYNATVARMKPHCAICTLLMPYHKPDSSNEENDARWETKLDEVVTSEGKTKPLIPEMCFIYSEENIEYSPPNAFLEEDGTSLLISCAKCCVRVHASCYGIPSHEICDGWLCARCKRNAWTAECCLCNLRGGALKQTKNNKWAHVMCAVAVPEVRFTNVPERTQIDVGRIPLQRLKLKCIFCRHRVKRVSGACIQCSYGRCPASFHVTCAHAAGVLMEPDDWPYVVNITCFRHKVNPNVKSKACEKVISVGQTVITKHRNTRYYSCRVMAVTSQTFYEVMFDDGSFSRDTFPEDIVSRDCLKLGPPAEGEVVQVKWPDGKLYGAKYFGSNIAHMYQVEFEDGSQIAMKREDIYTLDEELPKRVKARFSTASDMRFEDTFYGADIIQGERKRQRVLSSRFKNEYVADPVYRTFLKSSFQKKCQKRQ
- experimentalDetails: GASC-1 (JMJD2C) histone demethylase inhibitors, dose response, biochemical, DELFIA europium, cherry-picked samples (AID 488835)
- Format: functional
Calls of active or inactive are those of the source.
Possible outcomes: 1 = active, -1 = inactive

[[record]]
compound = "CCCCOc1ccc(CC2C(=O)N(C)C(=O)N(C)C2=O)cc1"
assaysystem = "Lysine-specific demethylase 4C (Homo sapiens, UniProt Q9H3R0)"
classassignment = 1

[[record]]
compound = "Cc1ccc(-c2csc3nc4cc(C(=O)NC5CCC(O)CC5)ccc4c(=O)n23)cc1 (centres undefined)"
assaysystem = "Lysine-specific demethylase 4C (Homo sapiens, UniProt Q9H3R0)"
classassignment = 1

[[record]]
compound = "O=C(NCc1ccccn1)c1cn(Cc2ccccc2)nn1"
assaysystem = "Lysine-specific demethylase 4C (Homo sapiens, UniProt Q9H3R0)"
classassignment = -1

[[record]]
compound = "C[C@H](CO)N1C[C@H](C)[C@@H](CN(C)Cc2ccc3c(c2)OCO3)Oc2c(NC(=O)C3CCCCC3)cccc2C1=O"
assaysystem = "Lysine-specific demethylase 4C (Homo sapiens, UniProt Q9H3R0)"
classassignment = 1

